- System: Streptococcus pneumoniae BS 3
- experimentNotes: In vitro antibacterial activity, MIC, broth microdilution
- Type: cell-based
- conditionNotes: Streptococcus pneumoniae, BS3; S. pneumoniae BS 3; MHB + 5% horse serum; 37° C., 18 hours; read-out: minimum inhibiting concentration MIC
# strict inequality: MIC < 0.03 µg/mL yields label 1, everything else yields label 0

compound | classAssignment
CCCCOc1ccc(CNCCCCCCNCCO/N=C2\[C@H](C)C[C@@](C)(O)[C@H](O[C@@H]3O[C@H](C)C[C@H](N(C)C)[C@H]3O)[C@@H](C)[C@H](O[C@H]3C[C@@](C)(OC)[C@@H](O)[C@H](C)O3)[C@@H](C)C(=O)O[C@H](CC)[C@@](C)(O)[C@H](O)[C@H]2C)cc1 [Compound 26] | label 1
CC[C@H]1OC(=O)[C@H](C)[C@@H](O[C@H]2C[C@@](C)(OC)[C@@H](O)[C@H](C)O2)[C@H](C)[C@@H](O[C@@H]2O[C@H](C)C[C@H](N(C)C)[C@H]2O)[C@](C)(O)C[C@@H](C)/C(=N\OCCNCCCCCCNCc2ccc([N+](=O)[O-])c(O)c2)[C@H](C)[C@@H](O)[C@]1(C)O [Compound 37] | label 0
CC[C@H]1OC(=O)[C@H](C)[C@@H](O[C@H]2C[C@@](C)(OC)[C@@H](O)[C@H](C)O2)[C@H](C)[C@@H](O[C@@H]2O[C@H](C)C[C@H](N(C)C)[C@H]2O)[C@](C)(O)C[C@@H](C)/C(=N\OCCNCCCCCCNCc2cccc(C(F)(F)F)c2)[C@H](C)[C@@H](O)[C@]1(C)O [Compound 19] | label 1
CC[C@H]1OC(=O)[C@H](C)[C@@H](O[C@H]2C[C@@](C)(OC)[C@@H](O)[C@H](C)O2)[C@H](C)[C@@H](O[C@@H]2O[C@H](C)C[C@H](N(C)C)[C@H]2O)[C@](C)(O)C[C@@H](C)/C(=N\OCCNCCNCc2ccccc2)[C@H](C)[C@@H](O)[C@]1(C)O [Compound 5] | label 1
CC[C@H]1OC(=O)[C@H](C)[C@@H](O[C@H]2C[C@@](C)(OC)[C@@H](O)[C@H](C)O2)[C@H](C)[C@@H](O[C@@H]2O[C@H](C)C[C@H](N(C)C)[C@H]2O)[C@](C)(O)C[C@@H](C)/C(=N\OCCCCCCNCCCNCc2ccccc2)[C@H](C)[C@@H](O)[C@]1(C)O [Compound 7] | label 0
CC[C@H]1OC(=O)[C@H](C)[C@@H](O[C@H]2C[C@@](C)(OC)[C@@H](O)[C@H](C)O2)[C@H](C)[C@@H](O[C@@H]2O[C@H](C)C[C@H](N(C)C)[C@H]2O)[C@](C)(O)C[C@@H](C)/C(=N\OCCNCCCCCCNCc2cccc(O)c2)[C@H](C)[C@@H](O)[C@]1(C)O [Compound 25] | label 0
CC[C@H]1OC(=O)[C@H](C)[C@@H](O[C@H]2C[C@@](C)(OC)[C@@H](O)[C@H](C)O2)[C@H](C)[C@@H](O[C@@H]2O[C@H](C)C[C@H](N(C)C)[C@H]2O)[C@](C)(O)C[C@@H](C)/C(=N\OCCNCCCCCCNCc2ccc3c(c2)OCO3)[C@H](C)[C@@H](O)[C@]1(C)O [Compound 18] | label 1
CC[C@H]1OC(=O)[C@H](C)[C@@H](O[C@H]2C[C@@](C)(OC)[C@@H](O)[C@H](C)O2)[C@H](C)[C@@H](O[C@@H]2O[C@H](C)C[C@H](N(C)C)[C@H]2O)[C@](C)(O)C[C@@H](C)/C(=N\OCCNCCCCCCNCc2cc(Cl)cc(Cl)c2O)[C@H](C)[C@@H](O)[C@]1(C)O [Compound 32] | label 0
CC[C@H]1OC(=O)[C@H](C)[C@@H](O[C@H]2C[C@@](C)(OC)[C@@H](O)[C@H](C)O2)[C@H](C)[C@@H](O[C@@H]2O[C@H](C)C[C@H](N(C)C)[C@H]2O)[C@](C)(O)C[C@@H](C)/C(=N\OCCNCCCCCCNCc2ccccc2C(F)(F)F)[C@H](C)[C@@H](O)[C@]1(C)O [Compound 21] | label 1
CC[C@H]1OC(=O)[C@H](C)[C@@H](O[C@H]2C[C@@](C)(OC)[C@@H](O)[C@H](C)O2)[C@H](C)[C@@H](O[C@@H]2O[C@H](C)C[C@H](N(C)C)[C@H]2O)[C@](C)(O)C[C@@H](C)/C(=N\OCCN(C)CCCCCCN(C)Cc2ccccc2)[C@H](C)[C@@H](O)[C@]1(C)O [Compound 38] | label 1
CC[C@H]1OC(=O)[C@H](C)[C@@H](O[C@H]2C[C@@](C)(OC)[C@@H](O)[C@H](C)O2)[C@H](C)[C@@H](O[C@@H]2O[C@H](C)C[C@H](N(C)C)[C@H]2O)[C@](C)(O)C[C@@H](C)/C(=N\OCCCNCCCCCCNCc2ccccc2)[C@H](C)[C@@H](O)[C@]1(C)O [Compound 12] | label 0
CC[C@H]1OC(=O)[C@H](C)[C@@H](O[C@H]2C[C@@](C)(OC)[C@@H](O)[C@H](C)O2)[C@H](C)[C@@H](O[C@@H]2O[C@H](C)C[C@H](N(C)C)[C@H]2O)[C@](C)(O)C[C@@H](C)/C(=N\OCCNCCCCCNCc2ccccc2)[C@H](C)[C@@H](O)[C@]1(C)O [Compound 10] | label 1
CC[C@H]1OC(=O)[C@H](C)[C@@H](O[C@H]2C[C@@](C)(OC)[C@@H](O)[C@H](C)O2)[C@H](C)[C@@H](O[C@@H]2O[C@H](C)C[C@H](N(C)C)[C@H]2O)[C@](C)(O)C[C@@H](C)/C(=N\OCCNCCCCCCNCc2ccco2)[C@H](C)[C@@H](O)[C@]1(C)O [Compound 31] | label 1

Source of measurements: patent US5847092A
